- Test system: PC-3
- assayRemarks: Cytotoxicity against human PC3 cells by MTT assay
- Format: functional, cell-based
pIC50: −log10 of the molar value.
Some molecules, each annotated with its measured pIC50.

{"columns": ["givenSmiles", "pIC50"],
 "data": [
  ["COc1cc(/C=C/C(=O)c2sc(Nc3ccccc3)nc2C)cc(OC)c1OC", "< 4.60"],
  ["COc1cc(/C=C/C(=O)c2sc(Nc3ccc(Cl)c(Cl)c3)nc2C)cc(OC)c1OC", 4.71],
  ["Cc1ccccc1Nc1nc(C)c(C(=O)/C=C/c2ccccc2Cl)s1", "< 4.60"],
  ["Cc1ccc(Nc2nc(C)c(C(=O)/C=C/c3ccccc3Cl)s2)cc1", "< 4.60"],
  ["Cc1nc(Nc2ccc(Cl)c(Cl)c2)sc1C(=O)/C=C/c1ccc2c(c1)OCO2", "< 4.60"],
  ["COc1cc(/C=C/C(=O)c2sc(Nc3cccc(C)c3)nc2C)cc(OC)c1OC", "< 4.60"],
  ["COc1cccc(/C=C/C(=O)c2sc(Nc3ccccc3C)nc2C)c1", "< 4.60"],
  ["Cc1nc(Nc2cccc(Cl)c2)sc1C(=O)/C=C/c1ccccc1", "< 4.60"],
  ["Cc1cccc(Nc2nc(C)c(C(=O)/C=C/c3ccc(Cl)cc3)s2)c1", "< 4.60"],
  ["COc1cccc(/C=C/C(=O)c2sc(Nc3ccc(Cl)cc3)nc2C)c1", "< 4.60"],
  ["COc1ccc(/C=C/C(=O)c2sc(Nc3ccc(Cl)cc3)nc2C)cc1", "< 4.60"],
  ["Cc1nc(Nc2ccccc2)sc1C(=O)/C=C/c1ccccc1Cl", "< 4.60"],
  ["Cc1nc(Nc2ccc(Cl)cc2)sc1C(=O)/C=C/c1ccccc1", 4.61],
  ["COc1cc(/C=C/C(=O)c2sc(Nc3ccc(Cl)cc3)nc2C)cc(OC)c1OC", "< 4.60"],
  ["Cc1cccc(Nc2nc(C)c(C(=O)/C=C/c3ccccc3Cl)s2)c1", 4.65],
  ["Cc1ccccc1Nc1nc(C)c(C(=O)/C=C/c2ccc(Cl)cc2)s1", "< 4.60"],
  ["Cc1nc(Nc2ccc(Cl)c(Cl)c2)sc1C(=O)/C=C/c1ccc(Cl)cc1", "< 4.60"],
  ["Cc1ccc(Nc2nc(C)c(C(=O)/C=C/c3ccc4c(c3)OCO4)s2)cc1", "< 4.60"],
  ["COc1cc(/C=C/C(=O)c2sc(Nc3ccccc3C)nc2C)cc(OC)c1OC", "< 4.60"],
  ["Cc1ccc(Nc2nc(C)c(C(=O)/C=C/c3ccc(Cl)cc3)s2)cc1", "< 4.60"],
  ["COc1cccc(/C=C/C(=O)c2sc(Nc3ccccc3)nc2C)c1", "< 4.60"],
  ["Cc1ccccc1Nc1nc(C)c(C(=O)/C=C/c2ccccc2)s1", "< 4.60"],
  ["Cc1nc(Nc2ccc(Cl)c(Cl)c2)sc1C(=O)/C=C/c1ccccc1", 5.10],
  ["COc1cccc(/C=C/C(=O)c2sc(Nc3cccc(C)c3)nc2C)c1", "< 4.60"],
  ["COc1cccc(/C=C/C(=O)c2sc(Nc3cccc(Cl)c3)nc2C)c1", "< 4.60"],
  ["Cc1nc(Nc2cccc(Cl)c2)sc1C(=O)/C=C/c1ccc(Cl)cc1", "< 4.60"],
  ["Cc1nc(Nc2ccccc2)sc1C(=O)/C=C/c1ccccc1", "< 4.60"],
  ["Cc1ccc(Nc2nc(C)c(C(=O)/C=C/c3ccccc3)s2)cc1", "< 4.60"],
  ["Cc1nc(Nc2ccccc2)sc1C(=O)/C=C/c1ccc(Cl)cc1", "< 4.60"],
  ["Cc1nc(Nc2ccc(Cl)cc2)sc1C(=O)/C=C/c1ccc(Cl)cc1", "< 4.60"],
  ["COc1cc(/C=C/C(=O)c2sc(Nc3ccc(C)cc3)nc2C)cc(OC)c1OC", "< 4.60"],
  ["Cc1cccc(Nc2nc(C)c(C(=O)/C=C/c3ccccc3)s2)c1", 4.93],
  ["COc1cc(/C=C/C(=O)c2sc(Nc3cccc(Cl)c3)nc2C)cc(OC)c1OC", "< 4.60"],
  ["COc1ccc(/C=C/C(=O)c2sc(Nc3ccc(Cl)c(Cl)c3)nc2C)cc1", "< 4.60"],
  ["COc1cccc(/C=C/C(=O)c2sc(Nc3ccc(C)cc3)nc2C)c1", "< 4.60"],
  ["COc1cccc(/C=C/C(=O)c2sc(Nc3ccc(Cl)c(Cl)c3)nc2C)c1", 5.00]
]}
